Tested on: 327498-153-R-J2-PDC complex spheroid growth, % test/control;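 further: spheroids exposed to compound for 7 days after 3 days of growth; 100% = DMSO vehicle control wells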
PROTOCOL_DETAILS: Anticancer human tumor 327498-153-R-J2-PDC patient-derived uterine carcinosarcoma cell line growth inhibition [Asc]
DETAILS: second compound 0.0949 µM; first compound 0.0316 µM; hits give low values
For each record, write down the corresponding viability, T/C.
Answers are plain numbers, in %.

Illustrative cases are given below, each with its answer.
COMPOUND	REPORTED_VALUE
NC1CCC(NC2CC2c2ccccc2)CC1 (stereo not given) + CCN1C(C(=O)NC23CCC(C(=O)O)(CC2)CC3)C(c2cccc(Cl)c2F)C2(C(=O)Nc3cc(Cl)ccc32)C12CCCCC2	83.9
C=CC(=O)N1CCN(c2nc(=O)n(-c3c(C)ccnc3C(C)C)c3nc(-c4c(O)cccc4F)c(F)cc23)C(C)C1 (stereo not given) + CCN1C(C(=O)NC23CCC(C(=O)O)(CC2)CC3)C(c2cccc(Cl)c2F)C2(C(=O)Nc3cc(Cl)ccc32)C12CCCCC2	48.1
COc1c(OCCCN2CCOCC2)ccc2c3n(c(=NC(=O)c4cnc(N)nc4)nc12)CCN3 + CCN1C(C(=O)NC23CCC(C(=O)O)(CC2)CC3)C(c2cccc(Cl)c2F)C2(C(=O)Nc3cc(Cl)ccc32)C12CCCCC2	50.4
C=C(F)C(=O)N1CCN(c2nc(OCC3CCCN3C)nc3c2CCN(c2cccc4cccc(Cl)c24)C3)CC1CC#N (stereo not given) + CCN1C(C(=O)NC23CCC(C(=O)O)(CC2)CC3)C(c2cccc(Cl)c2F)C2(C(=O)Nc3cc(Cl)ccc32)C12CCCCC2	49.1
Cn1ncnc1[C@H]1c2n[nH]c(=O)c3cc(F)cc(c23)N[C@@H]1c1ccc(F)cc1 + CCN1C(C(=O)NC23CCC(C(=O)O)(CC2)CC3)C(c2cccc(Cl)c2F)C2(C(=O)Nc3cc(Cl)ccc32)C12CCCCC2	7.19

Parameters: items (list). Returns: viability, T/C for each item.
1. O=C(c1ccc(F)c(F)c1Nc1ccc(I)cc1F)N1CC(O)([C@@H]2CCCCN2)C1 + CCN1C(C(=O)NC23CCC(C(=O)O)(CC2)CC3)C(c2cccc(Cl)c2F)C2(C(=O)Nc3cc(Cl)ccc32)C12CCCCC2
2. C#Cc1c(F)ccc2cc(O)cc(-c3ncc4c(N5CC6CCC(C5)N6)nc(OCC56CCCN5CC(F)C6)nc4c3F)c12 (stereo not given) + CCN1C(C(=O)NC23CCC(C(=O)O)(CC2)CC3)C(c2cccc(Cl)c2F)C2(C(=O)Nc3cc(Cl)ccc32)C12CCCCC2
3. CCN1CCN(Cc2ccc(Nc3ncc(F)c(-c4cc(F)c5nc(C)n(C(C)C)c5c4)n3)nc2)CC1 + CCN1C(C(=O)NC23CCC(C(=O)O)(CC2)CC3)C(c2cccc(Cl)c2F)C2(C(=O)Nc3cc(Cl)ccc32)C12CCCCC2
4. O=C(c1cc(Cc2n[nH]c(=O)c3ccccc23)ccc1F)N1CCN(C(=O)C2CC2)CC1 + CCN1C(C(=O)NC23CCC(C(=O)O)(CC2)CC3)C(c2cccc(Cl)c2F)C2(C(=O)Nc3cc(Cl)ccc32)C12CCCCC2
5. CNC(C)C(=O)NC1CN(S(=O)(=O)c2cccc(S(=O)(=O)N3CCC4CCC(C(=O)NC(c5ccccc5)c5ccccc5)N4C(=O)C(NC(=O)C(C)NC)C3)c2)CCC2CCC(C(=O)NC(c3ccccc3)c3ccccc3)N2C1=O (stereo not given) + CCN1C(C(=O)NC23CCC(C(=O)O)(CC2)CC3)C(c2cccc(Cl)c2F)C2(C(=O)Nc3cc(Cl)ccc32)C12CCCCC2

Resp:
1. 55.3
2. 77.4
3. 48.3
4. 74.5
5. 63.5

Data provenance: PubChem BioAssay AID1963424
